Target: human Edg-2 receptor (LPA1 receptor) (Homo sapiens)
Sequence (Q92633 whole entry): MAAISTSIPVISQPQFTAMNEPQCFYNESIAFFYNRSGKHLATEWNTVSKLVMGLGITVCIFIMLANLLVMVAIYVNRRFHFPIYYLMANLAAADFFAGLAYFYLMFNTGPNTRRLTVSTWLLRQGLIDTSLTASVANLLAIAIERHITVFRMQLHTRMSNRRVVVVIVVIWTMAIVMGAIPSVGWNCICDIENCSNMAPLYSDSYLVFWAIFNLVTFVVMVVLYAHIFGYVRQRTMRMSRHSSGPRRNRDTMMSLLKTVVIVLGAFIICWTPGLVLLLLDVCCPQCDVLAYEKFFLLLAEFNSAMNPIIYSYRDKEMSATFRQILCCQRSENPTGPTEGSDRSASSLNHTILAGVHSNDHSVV
Assay: Edg-2 receptor inhibition by FLIPR calcium fluorescence measurement (LPA-mediated calcium liberation)
Details: CHO cells stably overexpressing human Edg-2 receptor; LPA 18:1 100 nM; fluo-4 fluorescence; triplicate; read-out: Inhibitory concentrations IC50 for inhibition of the Edg-2 receptor
From the text: A) Determination of Edg-2 Receptor Inhibition by Fluorescence Imaging Plate Reader (FLIPR) Measurements The inhibition of the Edg-2 receptor (LPA1 receptor) by the compounds of the invention was quantified by the inhibitory effect on the LPA-mediated calcium liberation in a cell-based calcium fluorescence assay by use of Chinese hamster ovarian (CHO) cells in which the human Edg-2 receptor was stably overexpressed (FIp-In system, Invitrogen). […]
pIC50: −log10 of the molar value.
EXPERIMENTAL_ENDPOINT: pIC50

Answered examples (3):
{"columns": ["COMPOUND", "pIC50"],
 "data": [
  ["COc1ccc(C(=O)NC2(C(=O)O)Cc3ccccc3C2)cc1-c1cc(Cl)ccc1F", "6.00 to 7.00"],
  ["CCc1cccc(-c2cc(C(=O)NC3(C(=O)O)Cc4ccccc4C3)ccc2OC)c1", "> 7.00"],
  ["COc1ccc(C(=O)NC2(C(=O)O)CC3CCCCC3C2)cc1OCCc1cccc(C)c1 (centres unmarked)", "> 7.00"]
]}

Reported pIC50 of COc1ccc(C(=O)NC2(C(=O)O)Cc3ccccc3C2)cc1NCCc1ccccc1 : 6.00 to 7.00

Record COc1ccc(C(=O)NC2(C(=O)O)Cc3ccccc3C2)cc1OCCc1cccc([S+](C)[O-])c1 (centres unmarked) . Reported pIC50: 4.52 to 6.00

---

Target: UniProt:Q92633
Experiment: Edg-2 receptor inhibition by FLIPR calcium fluorescence measurement (LPA-mediated calcium liberation)
Conditions: CHO cells stably overexpressing human Edg-2 receptor; LPA 18:1 100 nM; fluo-4 fluorescence; triplicate; read-out: Inhibitory concentrations IC50 for inhibition of the Edg-2 receptor
pIC50: −log10 of the molar value.
EXPERIMENTAL_ENDPOINT: pIC50

Hey, UniProt:Q92633 data for COc1ccc(C(=O)NC2(C(=O)O)Cc3ccccc3C2)cc1-c1ccccc1Cl [Example 281] : pIC50 came out at 4.52 to 6.00

Simply: COc1ccc(C(=O)NC2(C(=O)O)Cc3ccccc3C2)cc1NCc1cccc(Cl)c1 [Example 123] , UniProt:Q92633, pIC50 = 4.52 to 6.00

Entry CC(=O)c1ccc(C(=O)NC2(C(=O)O)Cc3ccccc3C2)cc1OCCc1cccc(C)c1 [Example 8] : pIC50 on UniProt:Q92633 = 6.00 to 7.00

Readout pIC50 for COc1ccc(C(=O)NC2(C(=O)O)Cc3ccccc3C2)cc1OCCCC(C)C [Example 43] , test system UniProt:Q92633, was 4.52 to 6.00

GET /values?item= COCCOc1cc(C(=O)NC2(C(=O)O)Cc3ccccc3C2)ccc1OC [Example 33] &system= UniProt:Q92633 returns pIC50: 4.52 to 6.00

Item COc1ccc(C(=O)NC2(C(=O)O)Cc3cccc(Cl)c3C2)cc1OCCc1cccc(C)c1 (centres unmarked) [Example 217] ; assay system UniProt:Q92633; pIC50 reported as > 7.00

Test item COc1ccc(C(=O)NC2(C(=O)O)Cc3ccccc3C2)cc1-c1ccc(Cl)cc1 [Example 280] ; UniProt:Q92633; reported pIC50 was 6.00 to 7.00

Observed pIC50 on UniProt:Q92633, entry CCOc1cccc(-c2cc(C(=O)NC3(C(=O)O)Cc4ccccc4C3)ccc2OC)c1 [Example 288] , equals 6.00 to 7.00
